Biological target: HIV-1 RT enzyme (wild-type) (Human immunodeficiency virus type 1 group M subtype B, UniProt P04585)
Test: ECL assay for inhibition of HIV reverse transcriptase (WT)
Assay type: biochemical
Conditions: wild-type HIV-1 RT; read-out: ECL Assay (WT) IC50
readoutLabel: IC50
Answer with the figure and its unit, nothing else.

Guide cases for IC50, answers given:
chemicalString	IC50
O=c1c(Oc2cc(Cl)cc(Cl)c2)c(C(F)(F)F)ccn1Cc1n[nH]c2ncccc12	1.1 nM
N#Cc1cc(Cl)cc(Oc2c(Cl)c(CCc3n[nH]c4ncccc34)[nH]c(=O)c2Cl)c1	1.2 nM
N#Cc1cc(C#N)cc(Oc2c(C(F)(F)F)ccn(Cc3n[nH]c4ncccc34)c2=O)c1	3.4 nM
N#Cc1cc(Cl)cc(Oc2cc(NCc3n[nH]c4ncccc34)[nH]c(=O)c2Cl)c1	0.9 nM
N#Cc1cc(Cl)cc(Oc2c(F)c(NCc3n[nH]c4ncccc34)nc(F)c2Cl)c1	0.5 nM
N#Cc1cc(Cl)cc(Oc2nc(NCc3n[nH]c4ncccc34)c(Cl)cc2F)c1	0.3 nM
N#Cc1cc(Cl)cc(Oc2c(Cl)c(Cl)cn(Cc3n[nH]c4ncccc34)c2=O)c1	0.96 nM

Consider now this further molecule.
Entry N#Cc1cc(Cl)cc(Oc2c(C(F)(F)F)ccn(Cc3n[nH]c4ncccc34)c2=O)c1 , IC50 reported as 1.6 nM
